# run parameters: human
Each entry below lists one item and its recorded Hepatotoxicity (choleostasis) value.

Some solved cases for reference:
Fill in: Hepatotoxicity (choleostasis) of CC1=C(/C=C/C(C)=C/C=C/C(C)=C/C(=O)O)C(C)(C)CCC1 is ___
4

Fill in: Hepatotoxicity (choleostasis) of O=C1CCC(N2C(=O)c3ccccc3C2=O)C(=O)N1 (centres undefined) [THALIDOMIDE] is ___
0

Fill in: Hepatotoxicity (choleostasis) of CCOC(=O)[C@H](CCc1ccccc1)N[C@@H](C)C(=O)N1CCC[C@H]1C(=O)O is ___
4

New cases:
Fill in: Hepatotoxicity (choleostasis) of CCN(CC)CCNc1ccc(CO)c2sc3ccccc3c(=O)c12 is ___
1

Fill in: Hepatotoxicity (choleostasis) of CCCC(C)(COC(N)=O)COC(N)=O [MEPROBAMATE] is ___
1

Fill in: Hepatotoxicity (choleostasis) of C(=N\NC1=NCCN1)/c1c2ccccc2c(/C=N/NC2=NCCN2)c2ccccc12 is ___
1

Fill in: Hepatotoxicity (choleostasis) of CC(C)(C)NC(=O)[C@H]1CC[C@H]2[C@@H]3CC[C@H]4NC(=O)C=C[C@]4(C)[C@H]3CC[C@]12C [FINASTERIDE] is ___
0

Fill in: Hepatotoxicity (choleostasis) of CC#C[C@]1(O)CC[C@H]2[C@@H]3CCC4=CC(=O)CCC4=C3[C@@H](c3ccc(N(C)C)cc3)C[C@@]21C is ___
0

Fill in: Hepatotoxicity (choleostasis) of C[C@@H](c1ncncc1F)[C@](O)(Cn1cncn1)c1ccc(F)cc1F is ___
1

====

# protocol text: Highest frequency of moderate liver toxicity observed during clinical trials, expressed as a percentage. [column '% BIOL' in source]
# run parameters: human
Everything with Hepatotoxicity (moderate) lower than 5% is f; everything else, including exactly 5%, is t.

Test whether the compound CN(C)CCN1C(=O)c2cccc3cc(N)cc(c23)C1=O [AMONAFIDE] records Hepatotoxicity (moderate) of 5% or higher.
t

New cases:
Test whether the compound CC(C)(C#N)c1cc(Cn2cncn2)cc(C(C)(C)C#N)c1 [ANASTROZOLE] records Hepatotoxicity (moderate) of 5% or higher.
f

====

# protocol text: Highest frequency of moderate liver toxicity observed during clinical trials, expressed as a percentage. [column '% BIOL' in source]
# run parameters: human
Each entry below lists one item and its recorded Hepatotoxicity (moderate) value.

Some solved cases for reference:
Fill in: Hepatotoxicity (moderate) of CN(C)S(=O)(=O)c1ccc2c(c1)N(CCCN1CCC(CCO)CC1)c1ccccc1S2 is ___
1.9%

Fill in: Hepatotoxicity (moderate) of CCN(CC)CCNC(=O)c1cc(Cl)c(N)cc1OC [METOCLOPRAMIDE] is ___
6%

Fill in: Hepatotoxicity (moderate) of CC(=O)Oc1ccccc1C(=O)O is ___
66%

Fill in: Hepatotoxicity (moderate) of CN1CCN(C2=Nc3cc(F)ccc3Cc3ccccc32)CC1 is ___
23%

New cases:
Fill in: Hepatotoxicity (moderate) of FC(F)OC(F)C(F)(F)F (stereo not given) is ___
11.1%

Fill in: Hepatotoxicity (moderate) of Nc1ncnc2c1ncn2CCOCP(=O)(O)O is ___
33.3%

Fill in: Hepatotoxicity (moderate) of Nc1ccn([C@@H]2O[C@H](CO)[C@@H](O)C2(F)F)c(=O)n1 is ___
90.9%

Fill in: Hepatotoxicity (moderate) of CN(C)[C@@H]1C(O)=C(C(=O)NCNCCCC[C@H](N)C(=O)O)C(=O)[C@@]2(O)C(O)=C3C(=O)c4c(O)cccc4[C@@](C)(O)[C@H]3C[C@@H]12 is ___
0%

Fill in: Hepatotoxicity (moderate) of Cc1c(N)nc([C@@H](CC(N)=O)NC[C@@H](N)C(N)=O)nc1C(=O)N[C@@H](C(=O)N[C@@H](C)[C@H](O)[C@@H](C)C(=O)N[C@H](C(=O)NCCc1nc(-c2nc(C(=O)NCCCN(C)CCCN(Cc3ccc(OCc4ccccc4)c(OCc4ccccc4)c3)Cc3ccc(OCc4ccccc4)c(OCc4ccccc4)c3)cs2)cs1)[C@@H](C)O)C(O[C@H]1O[C@@H](CO)[C@H](O)[C@@H](O)[C@H]1O[C@H]1O[C@@H](CO)[C@@H](O)[C@H](OC(N)=O)[C@@H]1O)c1c[nH]cn1 (stereo not given in full) is ___
23.5%

Fill in: Hepatotoxicity (moderate) of CCc1nc(N)nc(N)c1-c1ccc(Cl)cc1.COc1ncnc(NS(=O)(=O)c2ccc(N)cc2)c1OC is ___
22.5%

Fill in: Hepatotoxicity (moderate) of CCC(Cc1c(I)cc(I)c(N)c1I)C(=O)O (stereo not given) is ___
0%

Fill in: Hepatotoxicity (moderate) of Cc1cccc(C)c1OCC(=O)N[C@@H](Cc1ccccc1)[C@@H](O)C[C@H](Cc1ccccc1)NC(=O)[C@H](C(C)C)N1CCCNC1=O is ___
0%

Fill in: Hepatotoxicity (moderate) of Clc1ccc(C(c2ccccc2Cl)C(Cl)Cl)cc1 (stereo not given) is ___
0%

Fill in: Hepatotoxicity (moderate) of O=c1[nH]c2ccccc2n1C1CCN(CCCC(c2ccc(F)cc2)c2ccc(F)cc2)CC1 [PIMOZIDE] is ___
0%

Fill in: Hepatotoxicity (moderate) of CCOC(=O)[C@H](CCc1ccccc1)N[C@@H](C)C(=O)N1[C@H](C(=O)O)C[C@@H]2CCC[C@@H]21 is ___
1.3%

====

# run parameters: human
measured property: Hepatotoxicity (cytolytic)
Answer field: number only, no words.

Some solved cases for reference:
Fill in: Hepatotoxicity (cytolytic) of CC(=O)OCC1=C(C(=O)O)N2C(=O)[C@@H](NC(=O)Cc3cccs3)[C@H]2SC1 [CEPHALOTHIN] is ___
1

Fill in: Hepatotoxicity (cytolytic) of CC1CCN(CCCC(=O)c2ccc(F)cc2)CC1 [MELPERONE] is ___
0

New cases:
Fill in: Hepatotoxicity (cytolytic) of CO/N=C(\C(=O)N[C@@H]1C(=O)N2C(C(=O)OCOC(=O)C(C)(C)C)=C(/C=C\c3scnc3C)CS[C@H]12)c1csc(N)n1 [CEFDITOREN PIVOXIL] is ___
0

Fill in: Hepatotoxicity (cytolytic) of Nc1cc([As]2[As](c3ccc(O)c(N)c3)[As](c3ccc(O)c(N)c3)[As](c3ccc(O)c(N)c3)[As]2c2ccc(O)c(N)c2)ccc1O.Nc1cc([As]2[As](c3ccc(O)c(N)c3)[As]2c2ccc(O)c(N)c2)ccc1O (centres undefined) is ___
1

====

Each entry below lists one item and its recorded Hepatotoxicity (granulomatous hepatitis) value.
# run parameters: human
Answer field: number only, no words.

Some solved cases for reference:
Fill in: Hepatotoxicity (granulomatous hepatitis) of NCC1CC(=O)N(Cc2ccccc2)C1 (centres undefined) is ___
0

Fill in: Hepatotoxicity (granulomatous hepatitis) of C=CC1=C(C(=O)O)N2C(=O)[C@@H](NC(=O)/C(=N\O)c3csc(N)n3)[C@H]2SC1 is ___
1

New cases:
Fill in: Hepatotoxicity (granulomatous hepatitis) of CN1C(=O)CN=C(c2ccccc2)c2cc(Cl)ccc21 is ___
1

Fill in: Hepatotoxicity (granulomatous hepatitis) of Cc1ccc(S(=O)(=O)NC(=O)NN2CCCCCC2)cc1 [TOLAZAMIDE] is ___
0

Fill in: Hepatotoxicity (granulomatous hepatitis) of COc1c(N2C[C@@H]3CCCN[C@@H]3C2)c(F)cc2c(=O)c(C(=O)O)cn(C3CC3)c12 is ___
0

Fill in: Hepatotoxicity (granulomatous hepatitis) of O=c1[nH]c(=O)n([C@H]2C[C@H](O)[C@@H](CO)O2)cc1I is ___
0

====

# run parameters: human, serum
Each entry below lists one item and its recorded Hepatotoxicity (moderate) value.
Answer field: number only, no words.

Some solved cases for reference:
Fill in: Hepatotoxicity (moderate) of c1ccc(C2(N3CCCCC3)CCCCC2)cc1 [PHENCYCLIDINE] is ___
1

Fill in: Hepatotoxicity (moderate) of NNc1nnc(NN)c2ccccc12 [DIHYDRALAZINE] is ___
0

Fill in: Hepatotoxicity (moderate) of CC1=C(C(=O)O)N2C(=O)[C@@H](NC(=O)[C@H](N)c3ccc(O)cc3)[C@H]2SC1 [CEFADROXIL] is ___
1

Fill in: Hepatotoxicity (moderate) of O=C(O)C1=C(C[n+]2ccc(CCS(=O)(=O)[O-])cc2)CS[C@@H]2[C@H](NC(=O)[C@H](NC(=O)c3[nH]cnc3C(=O)O)c3ccccc3)C(=O)N12 [CEFPIMIZOLE] is ___
30

Fill in: Hepatotoxicity (moderate) of Cc1ncc(CO)c(CO)c1O [PYRIDOXINE] is ___
2

Fill in: Hepatotoxicity (moderate) of Clc1cccc(Cl)c1N=C1NCCN1 [CLONIDINE] is ___
1

Fill in: Hepatotoxicity (moderate) of COCCCC/C(=N\OCCN)c1ccc(C(F)(F)F)cc1 [FLUVOXAMINE] is ___
5

Kindly review the next compound as well.
Fill in: Hepatotoxicity (moderate) of CN1C[C@H](C(=O)N[C@]2(C)O[C@@]3(O)[C@@H]4CCCN4C(=O)[C@H](Cc4ccccc4)N3C2=O)C=C2c3cccc4[nH]cc(c34)C[C@H]21 [ERGOTAMINE] is ___
1
